STUDY TARGET: Fuc(a1-2)[GalNAc(a1-3)]Gal
TEST SUMMARY: glycan array binding signal (z-score within array); higher = stronger binding
PARTICULARS: glycan notation: IUPAC condensed, linker removed
The sample as a whole holds a higher share of the strongest signals than the screen did.
OBSERVED PROPERTY: glycan array binding signal (z-score)
Give bare numbers.

Study these solved cases before continuing.
BINDER	DATA VALUE
AFL (Aspergillus fumigatus), Q4WW81 (protein) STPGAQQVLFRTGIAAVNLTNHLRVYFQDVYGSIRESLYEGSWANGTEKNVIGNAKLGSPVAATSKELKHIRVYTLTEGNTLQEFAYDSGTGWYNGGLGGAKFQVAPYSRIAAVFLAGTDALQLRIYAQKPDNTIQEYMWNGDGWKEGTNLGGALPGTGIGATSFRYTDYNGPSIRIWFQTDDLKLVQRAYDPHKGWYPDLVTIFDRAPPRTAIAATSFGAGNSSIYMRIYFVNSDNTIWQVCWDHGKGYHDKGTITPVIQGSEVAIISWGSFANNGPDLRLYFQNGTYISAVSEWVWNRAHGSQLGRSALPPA	1.73
LKITALY (Gibberella zeae) (protein) MGNFHESSNNIWLEDGHILHAECGNGEGDYVESTLDLDYYIGNDDGSFSWGGENFSGSASNITLDIEGDDNIPVLRAELNPMDGDPVEANVNLSERIGNDCGTLIFLA	-0.347
CV-2L (Chromobacterium violaceum), Q7NX84 (protein) MAQQGVFTLPARINFGVTVLVNSAATQHVEIFVDNEPRAAFSGVGTGDNNLGTKVINSGSGNVRVQITANGRQSDLVSSQLVLANKLNLAVVGSEDGTDMDYNDSIVILNWPLG	-0.2

Give one value of glycan array binding signal (z-score) per listed binder.
1. Galatrox (Botrops atrox), P0DM53 (protein) NNCPQDWLPMNGLCYKIFDELKAWKDAEMFCRKYKPGCHLASIILYGESPEWAEGHSEVWLGLWDKKKDFSWEWTDR
2. GH95CBM (Clostridium perfringens) (protein) EKVAVETSVYLSELEWKSASTGYGEIQKDASCDGNTITLKGENGEKVSYDKGIGTHAHSEIVYSLEGLDYYDYFETFVGVDQEMAGTVASISFEVYLDNEKVFDSGLMTGDTTQKHVKVPIAGKNTLKLVVKDGGDSIGSDHGSFGDAKLT
3. GH98CBM (Clostridium perfringens) (protein) EVYALEESRDVYLSDLDWLNATHGDDTKSKIVQKNHPFTPGNNNQSTKISLKMEDGSISEFEKGLGTIAGSPSTITYDISGAGVTKFFSYLGIDRSANPINEQYAKVDKIEVVVDGKVIYSTINQFPNGLTYETPAIKVDLNIPENAKRLQLKSYAGEKTWGDEVVYADAKFTAKGDFVN
4. NakA (Mycobacterium tuberculosum) (protein) SVVKPTKVTVFSPDGGADNPGEADLAIDGNPATSWKTDIYTDPVPFPSFKNGVGLMLQLPQATVVGTVAIDVASTGTKVEIRSASTPTPATLEDTAVLTSATALRPGHNTISVEAAAPTSNLLVWISTLGTTDGKSQADISEITIYAASD
5. Epa20 (Candida glabrata) (protein) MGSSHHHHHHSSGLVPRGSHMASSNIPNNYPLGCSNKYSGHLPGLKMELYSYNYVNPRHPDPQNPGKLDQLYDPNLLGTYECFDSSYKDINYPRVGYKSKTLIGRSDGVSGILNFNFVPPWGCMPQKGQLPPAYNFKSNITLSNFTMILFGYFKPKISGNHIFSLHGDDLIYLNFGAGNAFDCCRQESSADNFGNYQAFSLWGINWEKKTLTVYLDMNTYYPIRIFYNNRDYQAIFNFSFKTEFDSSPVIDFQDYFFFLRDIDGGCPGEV

Ans:
1. -0.357
2. -0.291
3. 4.81
4. 0.057
5. -0.452
